target: Forkhead box protein M1 [235-327] (Human, UniProt Q08050)
Sequence (Q08050 235-327): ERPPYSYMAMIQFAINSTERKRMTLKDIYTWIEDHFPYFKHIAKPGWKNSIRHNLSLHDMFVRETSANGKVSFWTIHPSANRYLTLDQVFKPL
pKd: −log10 of the molar value.
MEASUREMENT_TYPE: pKd

COc1ccccc1C(=O)C(CCC(=O)O)c1ccccc1OC (stereo not given) : 4.59

(a) N=c1sc(C(=O)c2cccs2)nn1-c1ccccc1
(b) CC1=C(C(=O)OC(C)C)C(c2ccc([N+](=O)[O-])cc2)NC(=S)N1 (stereo not given)
(c) CCC[C@H]1C(=O)N[C@]2(C(=O)O[C@@H]2[C@H]2C=CCCC2)[C@@]1(C)O
(d) Cc1cccc2c(/C=C/C(=O)O)cc(C(C)C)c(O)c12
Hi! Can you put these in order of pKd, lowest number first? Answer format: list of labels, ordered as asked.
c, d, b, a
